System: SARS-CoV-2
TEST_SUMMARY: Cytopathic effect (CPE), CellTiter-Glo, SARS-CoV-2 infected UNCN1T cells
MEASUREMENT_PARAMETERS: read-out: IC50 based on dose response curve by cytopathic effect (CPE), 24 hrs post-infection
I'd appreciate it if you could supply pIC50 values for the items below.
Value format note: pIC50 is -log10 of concentration (mol/L); just state the number.

q: Which value of pIC50 has been reported for O=c1cc(N2CCOCC2)oc2c(-c3ccc4c(c3)OCCO4)csc12 [Compound 0] in the records?
a: 6.60

q: Then what about the molecule CCC(CC)COC(=O)[C@H](C)N[P@](=O)(OC[C@H]1O[C@@](C#N)(c2ccc3c(N)ncnn23)[C@H](O)[C@@H]1O)Oc1ccccc1 [Remdesivir, reference compound] ?
a: 6.66

---

Reported IC50 values, BRD4-2 (Homo sapiens, UniProt O60885).

q: Give the reported IC50 for C=CC(=O)Nc1cccc(-c2csc3c(=O)cc(N4CCOCC4)oc23)c1 (system: BRD4-2 (Homo sapiens, UniProt O60885)).
a: 1000 to 10000 nM

q: Note, next up: CN(C)C(=O)c1cc2cnc(Nc3cccc(-c4csc5c(=O)cc(N6CCOCC6)oc45)c3)nc2n1C1CCCC1
a: 500 to 1000 nM

q: Then this compound: CN(C)C(=O)c1cc2cnc(Nc3ccc(-c4csc5c(=O)cc(N6CCOCC6)oc45)nc3)nc2n1C1CCCC1
a: 1000 to 10000 nM

q: Input C=CS(=O)(=O)N(CCS(=O)(=O)N(c1cc(-c2csc3c(=O)cc(N4CCOCC4)oc23)ccc1OC)S(=O)(=O)C=C)c1cc(-c2csc3c(=O)cc(N4CCOCC4)oc23)ccc1OC
a: < 500 nM

q: Next: CN(C)C(=O)c1cc2cnc(Nc3ccc(-c4csc5c(=O)cc(N6CCN(C(=O)OC(C)(C)C)CC6)oc45)cc3)nc2n1C1CCCC1
a: 1000 to 10000 nM

q: Check C/C=C(\C)C(=O)N1CCOc2ccc(-c3csc4c(=O)cc(N5CCOCC5)oc34)cc21 too.
a: 500 to 1000 nM

q: // repeat for CN1CCN(c2cc(=O)c3scc(-c4cc5c(c(C(=O)NCc6cccnc6)c4)OCCO5)c3o2)CC1 and report
a: 1000 to 10000 nM

---

TGT: UniProt:P48736
Sequence (P48736 whole entry): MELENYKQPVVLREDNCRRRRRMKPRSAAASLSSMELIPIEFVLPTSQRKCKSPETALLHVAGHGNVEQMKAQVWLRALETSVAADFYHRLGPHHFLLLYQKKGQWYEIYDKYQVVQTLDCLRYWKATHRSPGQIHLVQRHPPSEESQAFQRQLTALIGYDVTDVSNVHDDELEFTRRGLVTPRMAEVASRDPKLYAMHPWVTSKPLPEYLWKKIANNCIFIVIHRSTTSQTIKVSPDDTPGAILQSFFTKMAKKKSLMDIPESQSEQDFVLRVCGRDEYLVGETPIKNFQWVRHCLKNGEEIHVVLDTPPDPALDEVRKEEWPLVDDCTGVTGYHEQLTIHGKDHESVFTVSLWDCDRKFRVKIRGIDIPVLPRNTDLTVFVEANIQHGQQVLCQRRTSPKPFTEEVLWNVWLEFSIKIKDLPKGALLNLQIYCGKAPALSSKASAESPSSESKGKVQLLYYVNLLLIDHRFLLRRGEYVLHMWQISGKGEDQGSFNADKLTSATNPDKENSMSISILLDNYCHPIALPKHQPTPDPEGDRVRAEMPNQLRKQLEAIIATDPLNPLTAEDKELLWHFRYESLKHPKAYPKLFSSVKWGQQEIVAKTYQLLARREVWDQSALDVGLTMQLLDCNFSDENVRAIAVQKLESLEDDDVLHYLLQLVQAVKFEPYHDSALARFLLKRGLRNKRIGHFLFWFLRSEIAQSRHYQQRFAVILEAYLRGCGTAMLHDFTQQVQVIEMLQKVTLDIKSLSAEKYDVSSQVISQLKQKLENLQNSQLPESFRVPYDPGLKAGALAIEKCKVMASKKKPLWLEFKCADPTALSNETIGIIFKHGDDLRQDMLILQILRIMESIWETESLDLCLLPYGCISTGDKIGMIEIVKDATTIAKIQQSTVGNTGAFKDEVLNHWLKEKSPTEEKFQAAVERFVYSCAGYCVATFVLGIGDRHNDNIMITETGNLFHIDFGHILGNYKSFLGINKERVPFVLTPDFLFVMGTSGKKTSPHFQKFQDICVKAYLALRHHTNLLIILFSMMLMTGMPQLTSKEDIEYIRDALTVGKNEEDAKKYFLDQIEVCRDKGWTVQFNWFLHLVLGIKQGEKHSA
TEST_SUMMARY: PI3K gamma in vitro inhibition
Type: biochemical
MEASUREMENT_PARAMETERS: read-out: IC50 inhibition PI3K gamma
pIC50: −log10 of the molar value.
I'd appreciate it if you could supply pIC50 values for the items below.

q: For CN(C)C(=O)c1cc2cnc(N(c3cncc(-c4csc5c(=O)cc(N6CCOCC6)oc45)c3)c3ncc4cc(C(=O)N(C)C)n(C5CCCC5)c4n3)nc2n1C1CCCC1 , what is its reported pIC50?
a: 4.35 to 5.00

q: How about this compound: C=CS(=O)(=O)N(C)c1cc(-c2csc3c(=O)cc(N4CCOCC4)oc23)ccc1OC
a: > 6.30

q: Repeat with O=c1cc(N2CCOCC2)oc2c(C#Cc3ccsc3)csc12
a: > 6.30

q: // repeat for C=CS(=O)(=O)Nc1cccc(-c2csc3c(=O)cc(N4CCOCC4)oc23)c1 and report
a: > 6.30

q: Ok, now CN(C)C(=O)c1cc2cnc(Nc3ccc(-c4csc5c(=O)cc(N6CCOCC6)oc45)c(C(=O)O)c3)nc2n1C1CCCC1 [Compound 15]
a: 5.00 to 6.00

q: Same thing, different compound: Cc1nn(-c2ccnc(Nc3ccc(-c4csc5c(=O)cc(N6CCN(C(=O)OC(C)(C)C)CC6)oc45)cc3)n2)cc1CN1CC(O)C1
a: 4.35 to 5.00

q: Same again, this time with CC(=O)c1c(C)c2cnc(Nc3ccc(-c4csc5c(=O)cc(N6CCOCC6)oc45)cc3)nc2n(C2CCCC2)c1=O
a: 5.00 to 6.00

q: Also need O=c1cc(N2CCNCC2)oc2c(-c3ccc4c(c3)OCCO4)csc12 , thanks.
a: < 4.35

q: Request: C=CC(=O)Nc1cccc(-c2csc3c(=O)cc(N4CCNCC4)oc23)c1
a: < 4.35

---

BRD4-1 (Homo sapiens) data, read-out IC50

q: Tell me the measured IC50 of Cc1nn(-c2ccnc(Nc3ccc(-c4csc5c(=O)cc(N6CCOCC6)oc45)cc3)n2)cc1CN1CCC1 , please.
a: 1 to 10 µM

q: What do we get for CN(C)C(=O)c1cc2cnc(Nc3ccc(-c4csc5c(=O)cc(N6CCOCC6)oc45)c(C(=O)O)c3)nc2n1C1CCCC1 [Compound 14] ?
a: > 45 µM

q: Then this molecule: COC(=O)c1cc(-c2csc3c(=O)cc(N4CCOCC4)oc23)ccc1Nc1ncc2cc(C(=O)N(C)C)n(C3CCCC3)c2n1
a: < 0.5 µM

q: Another molecule to check: O=C(NCc1cccnc1)c1cc(-c2csc3c(=O)cc(N4CCNCC4)oc23)cc2c1OCCO2
a: < 0.5 µM

q: Next molecule up: O=C(O)c1cc2cnc(Nc3ccc(-c4csc5c(=O)cc(N6CCOCC6)oc45)cc3)nc2n1C1CCCC1
a: 0.5 to 1 µM

q: // repeat for C=CS(=O)(=O)N(C)c1cccc(-c2csc3c(=O)cc(N4CCOCC4)oc23)c1 and report
a: < 0.5 µM

q: Here is the next molecule: O=c1cc(N2CCNCC2)oc2c(-c3ccc4c(c3)OCCO4)csc12
a: < 0.5 µM

q: Next up: CN(C)C(=O)c1cc2cnc(Nc3ccc(-c4csc5c(=O)cc(N6CCN(C(=O)OC(C)(C)C)CC6)oc45)cc3)nc2n1C1CCCC1
a: 0.5 to 1 µM

q: And CC(=O)c1c(C)c2cnc(Nc3ccc(-c4csc5c(=O)cc(N6CCOCC6)oc45)cc3)nc2n(C2CCCC2)c1=O ?
a: < 0.5 µM

q: What do we get for C=CC(=O)Nc1cc(-c2csc3c(=O)cc(N4CCOCC4)oc23)ccc1OC ?
a: < 0.5 µM

q: Another: C=CS(=O)(=O)N(CCS(=O)(=O)N(c1cc(-c2csc3c(=O)cc(N4CCOCC4)oc23)ccc1OC)S(=O)(=O)C=C)c1cc(-c2csc3c(=O)cc(N4CCOCC4)oc23)ccc1OC
a: 1 to 10 µM

q: What do you have for C=CC(=O)N1CCOc2ccc(-c3csc4c(=O)cc(N5CCNCC5)oc34)cc21 ?
a: < 0.5 µM

q: Lookup Cc1nn(-c2ccnc(Nc3ccc(-c4csc5c(=O)cc(N6CCOCC6)oc45)cc3)n2)cc1CN(C)C
a: 1 to 10 µM

q: Now try C=CS(=O)(=O)N(c1cccc(-c2csc3c(=O)cc(N4CCOCC4)oc23)c1)S(=O)(=O)C=C .
a: < 0.5 µM

q: What about this molecule? O=C(NCc1cccnc1)c1cc(-c2csc3c(=O)cc(N4CCOCC4)oc23)cc2c1OCCO2
a: < 0.5 µM

q: Next up: Cc1nn(-c2ccnc(Nc3ccc(-c4csc5c(=O)cc(N6CCOCC6)oc45)cc3)n2)cc1CN1CCOCC1
a: 1 to 10 µM

q: Next up: CN(C)C(=O)c1cc2cnc(Nc3ccc(-c4csc5c(=O)cc(N6CCOCC6)oc45)nc3)nc2n1C1CCCC1
a: 10 to 45 µM

q: Further, for C/C=C(\C)C(=O)N1CCOc2ccc(-c3csc4c(=O)cc(N5CCOCC5)oc34)cc21 ?
a: < 0.5 µM

q: Then this molecule: C=CC(=O)Nc1cccc(-c2csc3c(=O)cc(N4CCOCC4)oc23)c1
a: 0.5 to 1 µM

q: Try O=c1cc(N2CCOCC2)oc2c(-c3ccc4c(c3)OCCO4)csc12 next.
a: < 0.5 µM

q: Lookup Cc1nn(-c2ccnc(Nc3ccc(-c4csc5c(=O)cc(N6CCNCC6)oc45)cc3)n2)cc1CN1CC(O)C1
a: 10 to 45 µM

q: Try this molecule next: COC(=O)c1cc(-c2csc3c(=O)cc(N4CCN(C(=O)OC(C)(C)C)CC4)oc23)cc2c1OCCO2
a: < 0.5 µM

q: Same question, CN(C)C(=O)c1cc2cnc(Nc3cncc(-c4csc5c(=O)cc(N6CCOCC6)oc45)c3)nc2n1C1CCCC1 this time
a: 1 to 10 µM

q: Entry to check: CNC(=O)c1cc2cnc(Nc3ccc(C#Cc4csc5c(=O)cc(N6CCOCC6)oc45)cc3)nc2n1C1CCCC1
a: 1 to 10 µM

q: Ok, now C/C=C(/C)C(=O)N1CCOc2ccc(-c3csc4c(=O)cc(N5CCOCC5)oc34)cc21
a: 0.5 to 1 µM

q: And then CN(C)C(=O)c1cc2cnc(Nc3cccc(-c4csc5c(=O)cc(N6CCOCC6)oc45)c3)nc2n1C1CCCC1 , what is it?
a: 1 to 10 µM

q: Next: C=CC(=O)N1CCOc2ccc(-c3csc4c(=O)cc(N5CCN(C(=O)OC(C)(C)C)CC5)oc34)cc21
a: 0.5 to 1 µM

q: Now try C=CS(=O)(=O)N(C)c1cc(-c2csc3c(=O)cc(N4CCOCC4)oc23)ccc1OC .
a: < 0.5 µM

q: Request: CN(C)C(=O)c1cc2cnc(Nc3ccc(-c4csc5c(=O)cc(N6CCOCC6)oc45)c(C(=O)O)c3)nc2n1C1CCCC1 [Compound 15]
a: 10 to 45 µM

Values were extracted from patent US20230165873A1.
